Numbers sourced from the Human Domainome abundance scans (Beltran et al. 2025).

B1: Triacylglycerol hydrolase DDHD2, residues 389 to 447; numbered along this chain, O94830 (parent)
chain: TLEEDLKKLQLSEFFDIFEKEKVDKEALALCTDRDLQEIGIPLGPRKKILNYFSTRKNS

variants of: B1; assay: abundance fitness (aPCA) (normalised: wild type 0, dead -1); higher = more abundant; growth selection in yeast, the domain comes from the species named; conditions: Homo sapiens
Would you mind labelling by abundance fitness? At or over -0.1 is YES, under is NO.

Inquiry: Dear colleague, could you confirm whether TLEEDLKKLQLSEIFDIFEKEKVDKEALALCTDRDLQEIGIPLGPRKKILNYFSTRKNS [F14I] has abundance fitness at or above -0.1?
Reply text: NO

Inquiry: Dear colleague, could you confirm whether TLEEDLKKLQLSEFGDIFEKEKVDKEALALCTDRDLQEIGIPLGPRKKILNYFSTRKNS [F15G] has abundance fitness at or above -0.1?
Reply text: YES

Inquiry: Dear colleague, could you confirm whether TLEEDLKKLQLSEFFDIFEKELVDKEALALCTDRDLQEIGIPLGPRKKILNYFSTRKNS [K22L] has abundance fitness at or above -0.1?
Reply text: NO

Inquiry: Dear colleague, could you confirm whether TLEEDLKKLQLSEFFDIFEKEKVDKEALALCTDQDLQEIGIPLGPRKKILNYFSTRKNS [R34Q] has abundance fitness at or above -0.1?
Reply text: YES

Inquiry: Dear colleague, could you confirm whether TLEEDNKKLQLSEFFDIFEKEKVDKEALALCTDRDLQEIGIPLGPRKKILNYFSTRKNS [L6N] has abundance fitness at or above -0.1?
Reply text: NO

Inquiry: Dear colleague, could you confirm whether TLEEDLKKLQLSEFFDIFEKEKVDKEALALCTDRDLQEIGIPLGPRKNILNYFSTRKNS [K48N] has abundance fitness at or above -0.1?
Reply text: NO

Inquiry: Dear colleague, could you confirm whether TLEEDLKKLQLSEFFDIFEKEKVDKEALALCTDRDLQEIGINLGPRKKILNYFSTRKNS [P42N] has abundance fitness at or above -0.1?
Reply text: NO

Inquiry: Dear colleague, could you confirm whether TLEEDLKKLQLKEFFDIFEKEKVDKEALALCTDRDLQEIGIPLGPRKKILNYFSTRKNS [S12K] has abundance fitness at or above -0.1?
Reply text: YES

Inquiry: Dear colleague, could you confirm whether TLEEDLKKLQLSEFFDIFEKEKVDMEALALCTDRDLQEIGIPLGPRKKILNYFSTRKNS [K25M] has abundance fitness at or above -0.1?
Reply text: YES

Inquiry: Dear colleague, could you confirm whether TLEEDLKKLQLSEFFDIFEKEKVDKEALALCTDRDLQEIGIPLGPRKKIQNYFSTRKNS [L50Q] has abundance fitness at or above -0.1?
Reply text: NO

Inquiry: Dear colleague, could you confirm whether TLEEDLKKLQLSEFFDIFEKEKVDKEALALCCDRDLQEIGIPLGPRKKILNYFSTRKNS [T32C] has abundance fitness at or above -0.1?
Reply text: NO

Inquiry: Dear colleague, could you confirm whether TLEEDLKKLQLSEFFDIFEKEKVDKEALALCTDRDLQEIGIPLGMRKKILNYFSTRKNS [P45M] has abundance fitness at or above -0.1?
Reply text: YES

Inquiry: Dear colleague, could you confirm whether TLEDDLKKLQLSEFFDIFEKEKVDKEALALCTDRDLQEIGIPLGPRKKILNYFSTRKNS [E4D] has abundance fitness at or above -0.1?
Reply text: NO

Inquiry: Dear colleague, could you confirm whether TLEEDLKKLQLSEFFDIFEGEKVDKEALALCTDRDLQEIGIPLGPRKKILNYFSTRKNS [K20G] has abundance fitness at or above -0.1?
Reply text: NO

Inquiry: Dear colleague, could you confirm whether TLEEDLKKLQLSEFFDIFEKEKVDKEALALCTRRDLQEIGIPLGPRKKILNYFSTRKNS [D33R] has abundance fitness at or above -0.1?
Reply text: NO

Inquiry: Dear colleague, could you confirm whether TLEEDLKKLGLSEFFDIFEKEKVDKEALALCTDRDLQEIGIPLGPRKKILNYFSTRKNS [Q10G] has abundance fitness at or above -0.1?
Reply text: NO

Inquiry: Dear colleague, could you confirm whether TLEEDLKKLQLSEFFDIFEKEKVDKEALALCTDRDLQEIGIPLGPRKKILNYFSTRINS [K57I] has abundance fitness at or above -0.1?
Reply text: YES

Inquiry: Dear colleague, could you confirm whether TLEEDLKKLQLSEFFDIFEKEKVDKEASALCTDRDLQEIGIPLGPRKKILNYFSTRKNS [L28S] has abundance fitness at or above -0.1?
Reply text: NO

Inquiry: Dear colleague, could you confirm whether TLEEDLKKLQLSEFFDIFEPEKVDKEALALCTDRDLQEIGIPLGPRKKILNYFSTRKNS [K20P] has abundance fitness at or above -0.1?
Reply text: NO

Inquiry: Dear colleague, could you confirm whether TLEEDLKKLQLSEFFDIFEKEKVDKEALALCTDRDIQEIGIPLGPRKKILNYFSTRKNS [L36I] has abundance fitness at or above -0.1?
Reply text: NO

Inquiry: Dear colleague, could you confirm whether TLEEDLKKLQLSEWFDIFEKEKVDKEALALCTDRDLQEIGIPLGPRKKILNYFSTRKNS [F14W] has abundance fitness at or above -0.1?
Reply text: NO

Inquiry: Dear colleague, could you confirm whether TLEEDLKKLQLSEFFDIFEKEKVDKEALALCTDRDLQEIGIPLGPRKKIKNYFSTRKNS [L50K] has abundance fitness at or above -0.1?
Reply text: NO

Inquiry: Dear colleague, could you confirm whether TLEEDLKKLQLSEFFDIFEKEKVDKEALALCTDRDLQEIGIPYGPRKKILNYFSTRKNS [L43Y] has abundance fitness at or above -0.1?
Reply text: YES

Inquiry: Dear colleague, could you confirm whether TLEEDLKKLQLSEFFDIFEKEKVDKEALALCTDRDLQEIGIPLGPRKKILNQFSTRKNS [Y52Q] has abundance fitness at or above -0.1?
Reply text: YES

Inquiry: Dear colleague, could you confirm whether TLEEDLKKLQLSEFFDIFEKEKVDKEALALCTDRDLQEIGIPLGPRKKILNYCSTRKNS [F53C] has abundance fitness at or above -0.1?
Reply text: YES

Inquiry: Dear colleague, could you confirm whether TLEEDLKKLQLSEFFDIFEKEKVDKEALALCTDRDLQEIGIPLGPRKKGLNYFSTRKNS [I49G] has abundance fitness at or above -0.1?
Reply text: NO

Inquiry: Dear colleague, could you confirm whether TLEEDLKKLQLSEFFDIFEAEKVDKEALALCTDRDLQEIGIPLGPRKKILNYFSTRKNS [K20A] has abundance fitness at or above -0.1?
Reply text: YES

Inquiry: Dear colleague, could you confirm whether TLEEDLKKLQLSEFFDIFEKEKVDKEALALCTDRDLQEIGIPHGPRKKILNYFSTRKNS [L43H] has abundance fitness at or above -0.1?
Reply text: YES

Inquiry: Dear colleague, could you confirm whether TLEEDLKKLQLSVFFDIFEKEKVDKEALALCTDRDLQEIGIPLGPRKKILNYFSTRKNS [E13V] has abundance fitness at or above -0.1?
Reply text: NO

Inquiry: Dear colleague, could you confirm whether TLEEDLKKLQLSEFFDIFEKEKVFKEALALCTDRDLQEIGIPLGPRKKILNYFSTRKNS [D24F] has abundance fitness at or above -0.1?
Reply text: YES

Inquiry: Dear colleague, could you confirm whether TLEGDLKKLQLSEFFDIFEKEKVDKEALALCTDRDLQEIGIPLGPRKKILNYFSTRKNS [E4G] has abundance fitness at or above -0.1?
Reply text: NO

Inquiry: Dear colleague, could you confirm whether TLEEDLKKLQLSEFFDIFEKEKVDKEALALCTDMDLQEIGIPLGPRKKILNYFSTRKNS [R34M] has abundance fitness at or above -0.1?
Reply text: YES

Inquiry: Dear colleague, could you confirm whether TLEEDLKKLQLSEFFDIFEKEKVDKEALALCTDRDLQEIGIPLGPRMKILNYFSTRKNS [K47M] has abundance fitness at or above -0.1?
Reply text: YES

Inquiry: Dear colleague, could you confirm whether TLEEDLRKLQLSEFFDIFEKEKVDKEALALCTDRDLQEIGIPLGPRKKILNYFSTRKNS [K7R] has abundance fitness at or above -0.1?
Reply text: YES

Inquiry: Dear colleague, could you confirm whether TLGEDLKKLQLSEFFDIFEKEKVDKEALALCTDRDLQEIGIPLGPRKKILNYFSTRKNS [E3G] has abundance fitness at or above -0.1?
Reply text: NO

Inquiry: Dear colleague, could you confirm whether TLEEDLKKLQLSEFFDIFEKEKVDKETLALCTDRDLQEIGIPLGPRKKILNYFSTRKNS [A27T] has abundance fitness at or above -0.1?
Reply text: YES

Inquiry: Dear colleague, could you confirm whether TLEEDLKKLQLSEFFDIFEKEKVDKEALALCTDRDLQEIGIPLGPRKKCLNYFSTRKNS [I49C] has abundance fitness at or above -0.1?
Reply text: NO

Inquiry: Dear colleague, could you confirm whether TLEEDLKKLQLSEFFDIFEKEKVDKEALALCTDRDLQMIGIPLGPRKKILNYFSTRKNS [E38M] has abundance fitness at or above -0.1?
Reply text: YES

Inquiry: Dear colleague, could you confirm whether TLEEDLKKLQLSEFFDIFEKEKVDKEALNLCTDRDLQEIGIPLGPRKKILNYFSTRKNS [A29N] has abundance fitness at or above -0.1?
Reply text: YES

Inquiry: Dear colleague, could you confirm whether TLEEDLKKLQLSEFFDIFEKEKNDKEALALCTDRDLQEIGIPLGPRKKILNYFSTRKNS [V23N] has abundance fitness at or above -0.1?
Reply text: NO

Inquiry: Dear colleague, could you confirm whether TLEEDLKKLQLSEFFDIFEKEKVDKEALALCTDRDLQEIGIPLGWRKKILNYFSTRKNS [P45W] has abundance fitness at or above -0.1?
Reply text: NO
